- assay text: Selectivity index, ratio of TC50 for african green monkey Vero cells to IC50 for Coxsackievirus A16
- Format: toxicity, cell-based
- run parameters: read-out: Selectivity Index
reported endpoint: selectivity ratio
Give the figure only, with no unit attached.

Solved cases below.
>>> measured_number("COc1ccc(-c2nc3c(C(=O)NCCCO)cccc3[nH]2)cc1OC")
2.1
>>> measured_number("CCC(CC)NC(=O)c1cccc2[nH]c(-c3ccc(OC)c(OC)c3)nc12")
3
>>> measured_number("COc1ccc(-c2nc3c(C(=O)Nc4cnc(Cl)cn4)cccc3[nH]2)cc1OC")
4.3
>>> measured_number("COc1ccc(-c2nc3c(C(=O)Nc4cnc(Cl)cn4)cccc3[nH]2)c(OC)c1OC")
3.9
>>> measured_number("COc1ccc(-c2nc3c(C(=O)Nc4nc5ccccc5[nH]4)cccc3[nH]2)c(OC)c1OC")
1.7

In: Name the reported selectivity ratio value associated with the compound CCC(CC)NC(=O)c1cccc2[nH]c(-c3ccc(OC)c(OC)c3OC)nc12
Out: 1.7

In: Name the reported selectivity ratio value associated with the compound COc1ccc(-c2nc3c(C(=O)Nc4ccccc4F)cccc3[nH]2)cc1OC
Out: 7

---

- assay text: Selectivity index, ratio of TC50 for african green monkey Vero cells to IC50 for Coxsackievirus B3
- Type: toxicity, cell-based
- run parameters: read-out: Selectivity Index
Strictly below 3 in selectivity ratio: met. Otherwise: not met.

In: Lab note: confirm whether the reported selectivity ratio for this compound is below 3, equality not counting. compound: O=C(N[C@H](CO)[C@H](O)c1ccc([N+](=O)[O-])cc1)c1cccc2[nH]c(-c3ccccn3)nc12
Out: not met

In: Lab note: confirm whether the reported selectivity ratio for this compound is below 3, equality not counting. compound: COc1ccc(-c2nc3c(C(=O)N[C@H](CO)[C@H](O)c4ccc([N+](=O)[O-])cc4)cccc3[nH]2)c(OC)c1OC
Out: met

In: Lab note: confirm whether the reported selectivity ratio for this compound is below 3, equality not counting. compound: C[C@@H](NC(=O)c1cccc2[nH]c(-c3ccco3)nc12)[C@H](O)c1ccc(Cl)cc1
Out: not met

In: Lab note: confirm whether the reported selectivity ratio for this compound is below 3, equality not counting. compound: O=C(N[C@H](CO)[C@H](O)c1ccc([N+](=O)[O-])cc1)c1cccc2[nH]c(-c3ccco3)nc12
Out: not met

In: Lab note: confirm whether the reported selectivity ratio for this compound is below 3, equality not counting. compound: COc1ccc(-c2nc3c(C(=O)Nc4cnc(Cl)cn4)cccc3[nH]2)c(OC)c1OC
Out: not met

---

- assay text: Cytotoxicity against african green monkey Vero cells
- Format: cell-based
- run parameters: chlorocebus sabaeus, Vero cells; read-out: TC50 (the source's name)
reported endpoint: log10 CC50 (log10 of the value in µM)
Please interpret these as log10 of CC50 where CC50 is in µM.

Solved cases below.
>>> measured_number("COc1ccc(-c2nc3c(C(=O)NCCCO)cccc3[nH]2)c(OC)c1OC")
1.60
>>> measured_number("COc1ccc(-c2nc3c(C(=O)NCCCO)cccc3[nH]2)cc1OC")
1.66
>>> measured_number("O=C(Nc1ccccc1)c1cccc2[nH]c(-c3ccccn3)nc12")
1.25
>>> measured_number("O=C(N[C@H](CO)[C@H](O)c1ccc([N+](=O)[O-])cc1)c1cccc2[nH]c(-c3ccco3)nc12")
2.18
>>> measured_number("O=C(N[C@H](CO)[C@H](O)c1ccc([N+](=O)[O-])cc1)c1cccc2[nH]c(-c3ccncc3)nc12")
2.09

In: Name the reported log10 CC50 value associated with the compound Cc1csc(NC(=O)c2cccc3[nH]c(-c4ccccn4)nc23)n1
Out: 1.25

---

- assay text: Selectivity index, ratio of TC50 for african green monkey Vero cells to IC50 for Coxsackievirus B3
- Assay type: toxicity, cell-based
- run parameters: read-out: Selectivity Index
Just so you know, the groups by selectivity ratio go like this: low class: < 4; middle class: ≥ 4 and < 7; high class: ≥ 7

Please review the following examples before continuing.
>>> assigned_class("COc1ccc(-c2nc3c(C(=O)NCCCO)cccc3[nH]2)cc1OC")
"low class"
>>> assigned_class("Cc1csc(NC(=O)c2cccc3[nH]c(-c4ccccn4)nc23)n1")
"high class"
>>> assigned_class("O=C(Nc1ccccc1F)c1cccc2[nH]c(-c3ccncc3)nc12")
"low class"

In: Each molecule maps to one class by selectivity ratio. Which class for O=C(Nc1ccccc1)c1cccc2[nH]c(-c3ccccn3)nc12 ?
Out: high class

In: Each molecule maps to one class by selectivity ratio. Which class for Cc1csc(NC(=O)c2cccc3[nH]c(-c4ccncc4)nc23)n1 ?
Out: middle class

In: Each molecule maps to one class by selectivity ratio. Which class for COc1ccc(-c2nc3c(C(=O)NCCCO)cccc3[nH]2)c(OC)c1OC ?
Out: low class

In: Each molecule maps to one class by selectivity ratio. Which class for O=C(NCCO)c1cccc2[nH]c(-c3cccnc3)nc12 ?
Out: high class

In: Each molecule maps to one class by selectivity ratio. Which class for CCC(CC)NC(=O)c1cccc2[nH]c(-c3ccc(OC)c(OC)c3OC)nc12 ?
Out: low class

---

- Test system: Enterovirus A71
- assay text: Antiviral activity against Human enterovirus 71 infected in african green monkey Vero cells assessed as inhibition of viral growth after 24 hrs by Reed-Muench method
- Format: functional, organism-based
- run parameters: Enterovirus A
reported endpoint: pIC50
# reply with the number alone; pIC50 is -log10 of concentration in mol/L

>>> measured_number("CCC(CC)NC(=O)c1cccc2[nH]c(-c3ccc(OC)c(OC)c3)nc12")
6.13

In: Name the reported pIC50 value associated with the compound NC(=O)c1ncn([C@@H]2O[C@H](CO)[C@@H](O)[C@H]2O)n1
Out: 2.63

In: Name the reported pIC50 value associated with the compound CCC(CC)NC(=O)c1cccc2[nH]c(-c3ccc(OC)c(OC)c3OC)nc12
Out: 4.73

In: Name the reported pIC50 value associated with the compound COc1ccc(-c2nc3c(C(=O)Nc4cnc(Cl)cn4)cccc3[nH]2)cc1OC
Out: 4.74

In: Name the reported pIC50 value associated with the compound COc1ccc(-c2nc3c(C(=O)NCCCO)cccc3[nH]2)c(OC)c1OC
Out: 4.83

In: Name the reported pIC50 value associated with the compound COc1ccc(-c2nc3c(C(=O)NCCCO)cccc3[nH]2)cc1OC
Out: 4.68

In: Name the reported pIC50 value associated with the compound COc1ccc(-c2nc3c(C(=O)Nc4nc5ccccc5[nH]4)cccc3[nH]2)c(OC)c1OC
Out: 4.78

In: Name the reported pIC50 value associated with the compound COc1ccc(-c2nc3c(C(=O)N[C@H](CO)[C@H](O)c4ccc([N+](=O)[O-])cc4)cccc3[nH]2)c(OC)c1OC
Out: 5.43

In: Name the reported pIC50 value associated with the compound COc1ccc(-c2nc3c(C(=O)Nc4cnc(Cl)cn4)cccc3[nH]2)c(OC)c1OC
Out: 4.77

---

- assay text: Cytotoxicity against african green monkey Vero cells
- Assay type: cell-based
- run parameters: chlorocebus sabaeus, Vero cells; read-out: TC50 (the source's name)
Strictly below 100 µM in CC50: Yes. Otherwise: No.

>>> assigned_class("COc1ccc(-c2nc3c(C(=O)Nc4ccccc4F)cccc3[nH]2)c(OC)c1OC")
"Yes"

In: Lab note: confirm whether the reported CC50 for this molecule is below 100 µM, equality not counting. molecule: O=C(Nc1ccccc1F)c1cccc2[nH]c(-c3ccccn3)nc12
Out: Yes

In: Lab note: confirm whether the reported CC50 for this molecule is below 100 µM, equality not counting. molecule: COc1ccc(-c2nc3c(C(=O)Nc4c[nH]cn4)cccc3[nH]2)cc1OC
Out: No

In: Lab note: confirm whether the reported CC50 for this molecule is below 100 µM, equality not counting. molecule: Cc1csc(NC(=O)c2cccc3[nH]c(-c4ccncc4)nc23)n1
Out: No

In: Lab note: confirm whether the reported CC50 for this molecule is below 100 µM, equality not counting. molecule: C[C@@H](NC(=O)c1cccc2[nH]c(-c3ccco3)nc12)[C@H](O)c1ccc(Cl)cc1
Out: No

---

Listed next: entries and their corresponding selectivity ratio.
- assay text: Selectivity index, ratio of TC50 for african green monkey Vero cells to IC50 for Coxsackievirus B3
- Assay type: toxicity, cell-based
- run parameters: read-out: Selectivity Index

Solved cases below.
>>> result("COc1ccc(-c2nc3c(C(=O)Nc4cnc(Cl)cn4)cccc3[nH]2)cc1OC")
4.3
>>> result("CCC(CC)NC(=O)c1cccc2[nH]c(-c3ccc(OC)c(OC)c3)nc12")
3

Please find the next molecule below.
In: Name the reported selectivity ratio value associated with the molecule O=C(Nc1ccccc1F)c1cccc2[nH]c(-c3cccnc3)nc12
Out: 3.2

---

- assay text: Cytotoxicity against african green monkey Vero cells
- Type: cell-based
- run parameters: chlorocebus sabaeus, Vero cells; read-out: TC50 (the source's name)
Listed next: entries and their corresponding CC50.
Give a bare numeral; the unit µM is implied.

Solved cases below.
>>> measured_number("O=C(Nc1ccccc1F)c1cccc2[nH]c(-c3cccnc3)nc12")
54.7
>>> measured_number("CCC(CC)NC(=O)c1cccc2[nH]c(-c3ccc(OC)c(OC)c3OC)nc12")
32.3
>>> measured_number("O=C(Nc1ccccc1F)c1cccc2[nH]c(-c3ccncc3)nc12")
111

In: Name the reported CC50 value associated with the molecule O=C(N[C@H](CO)[C@H](O)c1ccc([N+](=O)[O-])cc1)c1cccc2[nH]c(-c3ccc([N+](=O)[O-])o3)nc12
Out: 68.7

In: Name the reported CC50 value associated with the molecule C[C@@H](NC(=O)c1cccc2[nH]c(-c3ccc([N+](=O)[O-])o3)nc12)[C@H](O)c1ccc(Cl)cc1
Out: 48.6

In: Name the reported CC50 value associated with the molecule COc1ccc(-c2nc3c(C(=O)Nc4ccccc4F)cccc3[nH]2)cc1OC
Out: 24.5

In: Name the reported CC50 value associated with the molecule COc1ccc(-c2nc3c(C(=O)Nc4cnc(Cl)cn4)cccc3[nH]2)cc1OC
Out: 78.3

In: Name the reported CC50 value associated with the molecule COc1ccc(-c2nc3c(C(=O)Nc4cnc(Cl)cn4)cccc3[nH]2)c(OC)c1OC
Out: 65.2

In: Name the reported CC50 value associated with the molecule O=C(NCCO)c1cccc2[nH]c(-c3ccccn3)nc12
Out: 568
